# Tested on: M. tuberculosis H37Rv growth inhibition
# Protocol Description: M. tuberculosis H37Rv growth inhibitors, H37Rv strain (AID 1626)
Quantity: IC50

// solved cases for IC50 follow
Query :: Item O=C(NCc1cn(-c2ccccc2)nc1-c1ccccc1)c1cc([N+](=O)[O-])cc([N+](=O)[O-])c1 has what recorded IC50?
Result :: 0.591 µM

Query :: Item O=c1oc2ccccc2nc1/C=C(\O)c1ccc(Br)cc1 has what recorded IC50?
Result :: 3.56 µM

Query :: Item CCOc1ccc(NC(=O)CCSc2ccc3ccccc3n2)cc1 has what recorded IC50?
Result :: 6.54 µM

Query :: Item O=C(CCCSc1nnc(SCCCC(=O)c2ccc(F)cc2)s1)c1ccc(F)cc1 has what recorded IC50?
Result :: 0.516 µM

// next entry
Query :: Item CCC(C)c1ccc(NC(=O)COC(=O)C2=COCCO2)cc1 (configuration not stated) has what recorded IC50?
Result :: 4.54 µM

* * *

# reported IC50; entries follow
# Test system: M. tuberculosis H37Rv growth inhibition
# Protocol Description: M. tuberculosis H37Rv growth inhibitors, H37Rv strain (AID 1626)

Query :: Item CNc1cc(C(F)(F)F)nc(-c2ccccn2)n1 has what recorded IC50?
Result :: 40.7 µM

Query :: Item Cc1cccc(Nc2nnc(SCC(=O)Nc3cccnc3Cl)s2)c1 has what recorded IC50?
Result :: 2.34 µM

Query :: Item Cc1nc2ccccc2n1/N=C/c1ccc([N+](=O)[O-])s1 has what recorded IC50?
Result :: < 0.195 µM

Query :: Item COc1ccc(NCc2n[nH]nc2-c2ccccc2)cc1Cl has what recorded IC50?
Result :: 25.7 µM

Query :: Item Nc1nc(Cl)cc(N2CCC(c3cc(-c4ccc(Cl)cc4)n[nH]3)CC2)n1 has what recorded IC50?
Result :: 77.9 µM

***
Query :: Item O=C(CNC(=O)/C(=C\c1ccc(Br)cc1)NC(=O)c1ccccc1)OCc1ccccc1 has what recorded IC50?
Result :: 1.92 µM

Query :: Item COc1cccc(N2CCN(c3cnc4ccccc4n3)CC2)c1 has what recorded IC50?
Result :: 25.3 µM

Query :: Item CC(NC(=O)Nc1ccc(Br)cc1)C(C)(C)C (stereo not drawn) has what recorded IC50?
Result :: 0.42 µM

* * *

# Test system: M. tuberculosis H37Rv growth inhibition
# Protocol Description: M. tuberculosis H37Rv growth inhibitors, H37Rv strain (AID 1626)
Quantity: IC50

// solved cases for IC50 follow
Query :: Item Cc1ccc(-c2nnc(N3CCN(C(=O)c4ccco4)CC3)c3ccccc23)cc1 has what recorded IC50?
Result :: 7.44 µM

Query :: Item O=C(c1ccccc1)N1CCN(c2ccc([N+](=O)[O-])cc2-n2cccc2)CC1 has what recorded IC50?
Result :: 4.17 µM

Query :: Item COc1ccc(N=c2cc(-c3ccc(O)cc3)oc3ccccc23)cc1 has what recorded IC50?
Result :: 5.8 µM

Query :: Item CCOC(=O)C(C)Sc1nnc(NC(=O)c2ccc(C)c([N+](=O)[O-])c2)s1 (stereo not drawn) has what recorded IC50?
Result :: 6.69 µM

Query :: Item CN(C)c1ccc(N=Nc2ccccc2C(=O)OCC(=O)NCC2CCCCC2)cc1 has what recorded IC50?
Result :: 7.74 µM

***
Query :: Item Oc1cccc2ccc(/C=C/c3ccc(Br)s3)nc12 has what recorded IC50?
Result :: 2.56 µM
